This section presents molecules with their documented inhibition at 10 µM values.
# system-under-test: recombinant human mPGES-1 (Homo sapiens, UniProt O14684)
# Construct: made in house; host or cells: Rosetta E. coli (microsomal/membrane fraction)
# Sequence (O14684 1-152): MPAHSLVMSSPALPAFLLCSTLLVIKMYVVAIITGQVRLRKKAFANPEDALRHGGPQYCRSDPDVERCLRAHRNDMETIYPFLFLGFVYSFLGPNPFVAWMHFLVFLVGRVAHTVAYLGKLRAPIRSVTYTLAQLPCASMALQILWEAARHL
# assay-notes: mPGES-1 inhibition test (microsomes, PGH2 substrate, HTRF detection of PGE2)
# Format: biochemical
# measurement-context: inhibition of mPGES-1 at 10 μM

molecule	inhibition at 10 µM [%]
O=C(Nc1ccc(Br)cc1)c1cc2nc(Nc3c(Cl)cccc3Cl)[nH]c2cc1OCC(F)(F)F [Example 590]	96
O=C(N[C@H]1CC[C@H](C(F)(F)F)CC1)c1cc2nc(Nc3c(Cl)cc(F)cc3Cl)[nH]c2cc1OCC(F)(F)F [Example 583]	95
CC(C)(C)[C@H]1CC[C@@H](NC(=O)c2cc3nc(Nc4c(F)cccc4Cl)[nH]c3cc2F)CC1 [Example 378]	100
Cc1ccc(Nc2nc3cc(C(=O)Nc4ccc(Br)cc4)ccc3n2C)c(Cl)c1 [Example 512]	99
CC1CC(NC(=O)c2ccc3c(c2)nc(Nc2c(Cl)cccc2Cl)n3C)CC(C)(C)C1 (stereo not shown) [Example 241]	100
CC(NC(=O)c1ccc2c(c1)nc(Nc1c(Cl)cccc1Cl)n2C)c1ccccn1 (stereo not shown) [Example 242]	70
CN(C)CCCn1c(Nc2c(Cl)cccc2Cl)nc2cc(C(=O)Nc3cc(Cl)ccn3)ccc21 [Example 276]	100
O=C(Nc1ccc(I)cc1)c1cc2nc(Nc3c(Cl)cccc3Cl)[nH]c2cc1Cl [Example 57]	96
Cn1c(Nc2c(Cl)cccc2Cl)nc2cc(C(=O)Nc3cccc(Cl)c3)ccc21 [Example 297]	97
Cn1c(Nc2ccccc2OC(F)(F)F)nc2cc(C(=O)Nc3ccc(Br)cc3)ccc21 [Example 320]	100

###

# system-under-test: recombinant human mPGES-1 (Homo sapiens)
# Construct: made in house; host or cells: Rosetta E. coli (microsomal/membrane fraction)
# Sequence (O14684 1-152): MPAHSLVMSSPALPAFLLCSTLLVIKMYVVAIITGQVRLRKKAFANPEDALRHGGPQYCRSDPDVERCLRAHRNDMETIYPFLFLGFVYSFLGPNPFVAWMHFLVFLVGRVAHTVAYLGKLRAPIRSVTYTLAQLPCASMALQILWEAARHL
# assay-notes: mPGES-1 inhibition test (microsomes, PGH2 substrate, HTRF detection of PGE2)
# Assay type: biochemical
# measurement-context: inhibition of mPGES-1 at 10 μM
This section presents molecules with their documented inhibition at 10 µM values.
observation-type: inhibition at 10 µM (%)

smiles	value-measured
NCCCn1c(Nc2c(Cl)cccc2Cl)nc2cc(C(=O)Nc3cc(Cl)ccn3)ccc21	100
Cc1c(Cl)cccc1NC(=O)c1ccc2[nH]c(Nc3c(Cl)cccc3Cl)nc2c1	100
O=C(N[C@H]1CC[C@H](C(F)(F)F)CC1)c1ccc2[nH]c(Nc3c(Cl)cccc3Cl)nc2c1	98
N[C@H]1C[C@H](n2c(Nc3c(Cl)cccc3Cl)nc3cc(C(=O)Nc4cc(Cl)ccn4)ccc32)C1	96
Cn1c(Nc2c(Cl)cccc2Cl)nc2cc(C(=O)NC3CCCCC3)c(F)cc21	98
O=C(Nc1cc(Cl)c(Cl)c(Cl)c1)c1ccc2[nH]c(Nc3c(Cl)cccc3Cl)nc2c1	92

###

This section presents compounds with their documented inhibition at 1 µM values.
# system-under-test: recombinant human mPGES-1 (Homo sapiens, UniProt O14684)
# Construct: made in house; host or cells: Rosetta E. coli (microsomal/membrane fraction)
# Sequence (O14684 1-152): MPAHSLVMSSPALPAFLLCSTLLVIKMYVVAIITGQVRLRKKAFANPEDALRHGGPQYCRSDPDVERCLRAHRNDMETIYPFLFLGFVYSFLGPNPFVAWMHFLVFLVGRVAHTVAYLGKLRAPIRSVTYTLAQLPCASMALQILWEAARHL
# assay-notes: mPGES-1 inhibition test (microsomes, PGH2 substrate, HTRF detection of PGE2)
# Format: biochemical
# measurement-context: inhibition of mPGES-1 at 1 μM (marked in cell)
observation-type: inhibition at 1 µM (%)

smiles	observation-type	value-measured
O=C(Nc1ccc(F)c(Br)c1)c1ccc2[nH]c(Nc3c(Cl)cccc3Cl)nc2c1	inhibition at 1 µM	100
Cc1ccc(Cl)c(Nc2nc3cc(C(=O)NC4CCC(C)(C)CC4)c(F)cc3n2C)c1F	inhibition at 1 µM	94
CC(C)Oc1cc2c(cc1C(=O)NC1CCC3(CC1)CC3)nc(Nc1c(Cl)ccc(Cl)c1F)n2C	inhibition at 1 µM	100
Cc1ccc(Cl)c(Nc2nc3cc(C(=O)NC4CCCCC4)c(F)cc3n2C)c1F	inhibition at 1 µM	93
COc1cc2c(cc1C(=O)NC1CCC3(CC1)CC3)nc(Nc1c(Cl)ccc(Cl)c1F)n2C	inhibition at 1 µM	100
CCOc1cc2[nH]c(Nc3c(Cl)ccc(Cl)c3F)nc2cc1C(=O)NC1CCC2(CC1)CC2	inhibition at 1 µM	99
O=C(Nc1ccc(Cl)c(F)c1)c1ccc2[nH]c(Nc3c(Cl)cccc3Cl)nc2c1	inhibition at 1 µM	100
COc1cc2c(cc1C(=O)Nc1ccc(Br)cc1)nc(Nc1cc(C)ccc1C(F)(F)F)n2C	inhibition at 1 µM	97
O=C(Nc1ccc(F)c(Cl)c1)c1ccc2[nH]c(Nc3c(Cl)cccc3Cl)nc2c1	inhibition at 1 µM	95

Data origin: patent US8916599B2
